target: NDM-1 (Klebsiella pneumoniae, UniProt C7C422); experiment: biochemical
Sequence (C7C422 29-270 limits assumed): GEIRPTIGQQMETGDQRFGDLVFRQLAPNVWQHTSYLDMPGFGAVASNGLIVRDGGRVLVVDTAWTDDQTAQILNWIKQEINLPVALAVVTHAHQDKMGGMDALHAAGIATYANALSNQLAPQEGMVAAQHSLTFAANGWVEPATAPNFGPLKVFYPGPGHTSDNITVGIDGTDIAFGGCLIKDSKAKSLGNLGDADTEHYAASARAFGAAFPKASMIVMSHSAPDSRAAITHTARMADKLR
endpoint: pIC50
Scale note: pIC50 = -log10(concentration in M).

What pIC50 value was documented for this compound, O=C(N[C@H]1Cc2cccc(C(=O)O)c2OB1O)c1ccc(CNCCN(Cc2ccccn2)Cc2ccccn2)cc1 ?
6.85

###

Target: VIM-2 (Pseudomonas aeruginosa, UniProt Q9K2N0)
Conditions: inhibitor
Experimental: IC50 determination with purified enzymes was performed as previously described ([40]). In brief, enzymes were diluted in 50 mM HEPES, pH 7.5, supplemented with 1 µM Zn^2+. […] Enzymes and inhibitors were mixed at various inhibitor concentrations, and absorbance was measured by spectrophotometry (Table S5). For NDM-1 and MBP-NDM-9, the hydrolysis of meropenem (24 µM) was monitored at 300 nm using UV- transparent 96-well plates (Corning, Kennebunk, ME). […]
endpoint: IC50 (µM)
Express it in µM; write the number only.

Provide value of IC50 for this record tested with VIM-2 (Pseudomonas aeruginosa, UniProt Q9K2N0): O=C(N[C@H]1Cc2cccc(C(=O)O)c2OB1O)c1ccc(CNCCN(Cc2ccccn2)Cc2ccccn2)cc1 [APC24-7]
0.11

Measured values drawn from paper PMC12724231 for this set.
